target: MAPKAP-K2 (Homo sapiens, UniProt P49137); assay: MAPKAP-K2 enzyme activity inhibition assay, Method B (33P-ATP, MultiScreen-PH plate); format: biochemical; details: recombinant human MAPKAP-K2, 0.5% DMSO, 30 min room temperature, read-out: Inhibitory activity (MAPKAP-K2 IC50 class)
Sequence (P49137 whole entry): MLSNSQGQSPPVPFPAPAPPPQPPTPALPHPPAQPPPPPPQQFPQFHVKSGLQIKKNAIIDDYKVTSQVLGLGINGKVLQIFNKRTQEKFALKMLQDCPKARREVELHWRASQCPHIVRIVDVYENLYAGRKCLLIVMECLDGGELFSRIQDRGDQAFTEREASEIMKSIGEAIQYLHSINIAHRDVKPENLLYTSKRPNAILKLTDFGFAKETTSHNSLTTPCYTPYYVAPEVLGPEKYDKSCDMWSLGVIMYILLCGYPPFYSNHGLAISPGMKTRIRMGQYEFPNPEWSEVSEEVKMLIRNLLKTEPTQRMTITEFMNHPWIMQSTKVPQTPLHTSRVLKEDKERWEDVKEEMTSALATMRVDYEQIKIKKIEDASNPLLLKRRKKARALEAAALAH
Quick reference for IC50 among some compounds

# count of solved cases: 5
Cc1c(O[C@H]2CC[C@@H](N)CC2)nc2ccnn2c1Nc1ccc(I)cc1 : ≤ 2 µM
Cc1c(OC2CCCNC2)nc2ccnn2c1Nc1ccc2nc(SC(C)C)sc2c1 (stereo not shown) : 2 to 20 µM
Cc1c(O[C@H]2CC[C@@H](N)CC2)nc2ccnn2c1Nc1ccc2nc(SC(C)C)sc2c1 : ≤ 2 µM
CCOc1ccc(Nc2c(C)c(OC3CCCNC3)nc3ccnn23)cc1 (stereo not shown) : 2 to 20 µM
COc1ccc(Nc2ccc(Nc3c(C)c(O[C@H]4CC[C@@H](N)CC4)nc4ccnn34)cc2)cc1 : ≤ 2 µM

The recorded IC50 for CCOc1ccc(Nc2c(C)c(OCC(N)(CO)CO)nc3ccnn23)cc1 is 20 to 100 µM

Lab note: Cc1ccc2nc(-c3ccc(Nc4c(C)c(OC5CCCNC5)nc5ccnn45)cc3)sc2c1 (stereo not shown) gave IC50 of ≤ 2 µM

Per the record, COC(=O)c1ccc(Nc2c(C)c(O[C@H]3CC[C@@H](N)CC3)nc3ccnn23)cc1 has IC50 of 20 to 100 µM

Lab book: IC50 of CCOc1ccc(Nc2c(C)c(OC3CC(C)(C)CC(C)(CN)C3)nc3ccnn23)cc1 (stereo not shown) noted as 20 to 100 µM

For reference, reported IC50 for Cc1c(O[C@H]2CC[C@@H](N)CC2)nc2ccnn2c1Nc1ccc(C#N)c(C(F)(F)F)c1 stands at ≤ 2 µM

# IC50 (compound: CCOc1ccc(Nc2c(C)c(O[C@@H]3CNCC[C@H]3CC(=O)NCc3ccccc3)nc3ccnn23)cc1 ) is 2 to 20 µM

Summary for this compound, CCOc1ccc(Nc2c(C)c(OCCCCN)nc3ccnn23)cc1 : IC50 is 2 to 20 µM

IC50 in this record for Cc1c(O[C@H]2CC[C@@H](N)CC2)nc2ccnn2c1Nc1ccc(OCc2ccccc2)cc1 : ≤ 2 µM

Entry under test: CCc1c(O[C@H]2CC[C@@H](N)CC2)nc2ccnn2c1Nc1ccc(F)c(Cl)c1 . Its IC50 was 2 to 20 µM

Lab book: IC50 of N[C@H]1CC[C@@H](Oc2cc(Nc3ccc(F)c(Cl)c3)n3ncc(I)c3n2)CC1 noted as 20 to 100 µM

Recorded result, Cc1c(OC2CCCNC2)nc2ccnn2c1Nc1ccc(S(=O)(=O)N2CCOCC2)cc1 (stereo not shown) , IC50: 2 to 20 µM

The recorded IC50 for Cc1c(OC2CCNCC2)nc2ccnn2c1Nc1ccc(OCc2ccccc2)cc1 is 2 to 20 µM

Input Cc1c(O[C@H]2CC[C@@H](N)CC2)nc2ccnn2c1Nc1ccc(O)cc1 . Output IC50: ≤ 2 µM

The value of IC50 measured for the compound CCOc1ccc(Nc2c(C)c(O[C@@H]3CNCC[C@H]3CC(=O)NC)nc3ccnn23)cc1 turned out to be 2 to 20 µM

// IC50 value for CCOc1ccc(Nc2c(C)c(O[C@@H]3CNCC[C@H]3CC(=O)N(C)C)nc3ccnn23)cc1 : 2 to 20 µM

// field: IC50; key: CCOc1ccc(Nc2c(C)c(OC[C@H]3CCCN3)nc3ccnn23)cc1 ; value = 20 to 100 µM

Field IC50 (entry CCOc1ccc(Nc2c(C)c(OC3CCN(C)CC3)nc3ccnn23)cc1 ) reads 2 to 20 µM

Entry CCOc1ccc(Nc2c(C)c(OC[C@@H]3CCCN3)nc3ccnn23)cc1 — recorded IC50 = 20 to 100 µM

Sure, the documented IC50 for CCOc1ccc(Nc2c(C)c(OCCN)nc3ccnn23)cc1 is 20 to 100 µM

IC50 recorded for this compound, CCOc1ccc(Nc2c(C)c(O[C@@H]3CC[C@H](C)NC3)nc3ccnn23)cc1 , is 20 to 100 µM

Reported IC50 for Cc1c(O[C@H]2CC[C@@H](N)CC2)nc2ccnn2c1Nc1ccc(C(=O)c2ccccc2)cc1 was ≤ 2 µM

So for N[C@H]1CC[C@@H](Oc2nc3ccnn3c(Nc3ccc(OCc4ccccc4)cc3)c2-c2ccccc2)CC1 , the logged IC50 turned out to be 2 to 20 µM

// Cc1c(OC2CCCNC2)nc2ccnn2c1Nc1cccc2cnccc12 (stereo not shown) : IC50 value = 20 to 100 µM

response.value for CCOc1ccc(Nc2c(C)c(O[C@@H]3CNCC[C@H]3CC(=O)NC3CC3)nc3ccnn23)cc1 (field: IC50) = 2 to 20 µM
